# test.name: Inhibition of chymotrypsin at 2.5 uM after 30 mins relative to control
Activity calls are given as the source filed them. No cut-off for these calls is given here.
endpoint.name: inhibition

Solved cases (5 shown):
CSCC[C@H](NC(=O)OCc1ccccc1)C(=O)O[C@@H](CCSC)C(=O)N[C@H](C(C)C)P(=O)(Oc1ccc(SC)cc1)Oc1ccc(SC)cc1    14%
CSCC[C@H](NC(=O)OCc1ccccc1)C(=O)O[C@H](C(=O)N[C@H](C(C)C)P(=O)(Oc1ccc(Cl)cc1)Oc1ccc(Cl)cc1)c1ccc([N+](=O)[O-])cc1    inactive
CSCC[C@H](NC(=O)OCc1ccccc1)C(=O)O[C@@H](CC(C)C)C(=O)N[C@H](C(C)C)P(=O)(Oc1ccc(SC)cc1)Oc1ccc(SC)cc1    inactive
CCCCN(C(=O)CNC(=O)OCc1ccccc1)[C@@H](Cc1ccccc1)C(=O)N[C@H](C(C)C)P(=O)(Oc1ccc(SC)cc1)Oc1ccc(SC)cc1    14%
CSCC[C@H](NC(=O)OCc1ccccc1)C(=O)O[C@H](C(=O)N[C@H](C(C)C)P(=O)(Oc1ccc(SC)cc1)Oc1ccc(SC)cc1)c1ccc([N+](=O)[O-])cc1    inactive

Now consider a different compound.
In: Any idea what inhibition was measured for CCCCN(C(=O)CNC(=O)OCc1ccccc1)[C@@H](CC(C)C)C(=O)N[C@H](C(C)C)P(=O)(Oc1ccc(SC)cc1)Oc1ccc(SC)cc1 ?
Out: inactive
